Assay: soluble on expression in E. coli; label from the status in PepcDB or PDB records
experimental_endpoint: soluble on expression in E. coli

>  <sequence>
MGSDKIHHHHHHMIKFLYFTDTHIRGTAPKNRLDPFVETLKHKLHEVMEIAETEKVDMLLHGGDVFDRPDLSPNVVGQFAQIFRKTSRPIYAIAGNHDTFGHNPETISRTMLGLLHSFGIIHIIDPQTPVLVEKDGVKVQISGQPYHYDIDQRDPKLDYYPVNVHEADVMVHLVHSMLVEKALPEGIPHTLIDHIWGTSADVLLTGHFHGGFGIKQKDGRYICNPGAIARINNHWTELVRTPTVILGTITKDGIDLKERPLQSAKNGEEVLDRSFLEKSINQEEKLHAFIQQVKEHAEFQSLNMNDVINEIAAMSNVEEPVKQEALRRITVIEEAWKGGEHEYD

>  <test_result>
not soluble

$$$$
>  <sequence>
MGSDKIHHHHHHSCDNDDDESIAVPTPLQEAFSTRYPNVKNVKWETKAGYYVADFYDGYEASAWFTTDGNWHMTETDIPYTALPDPVKSAFEASDYKTWKRDDVDKLERQGIETVYVIEVENQNQEVDLYYSADGVLIKSIADTDDHENEHLPTTQLPAVMKTFIDGKYAGARIVEVDVEDDKNDWDFGFTEVDIIHFDSGLNRNVSKEVLFDKGREWYSTSWEVRRNELPTAVTNAISTEYAGYQMDDAEYFEMATETSYYQIELEGNNSPDIDIKVTADGTILK

>  <test_result>
not soluble

$$$$
>  <sequence>
MENGEAKQSVPLLTPYKMGRFNLSHRVVLAPLTRQRSYGNVPQPHAAIYYSQRTTPGGFLITEATGVSDTAQGYQDTPGIWTKEHVEAWKPIVDAVHAKGGIFFCQIWHVGRVSNSGFQPNGKAPISCSDKPLMPQIRSNGIDEALFTPPRRLGIEEIPGIVNDFRLAARNAMEAGFDGVEIHGANGYLIDQFMKDTVNDRTDEYGGSLQNRCKFPLEIVDAVAKEIGPDRVGIRLSPFADYMESGDTNPGALGLYMAESLNKYGILYCHVIEARMKTMGEVHACPHTLMPMRKAFKGTFISAGGFTREDGNEAVSKGRTDLVAYGRWFLANPDLPKRFQVDAPLNKYDRPTFYTSDPVVGYTDYPFLESTA

>  <test_result>
soluble

$$$$
>  <sequence>
LARPKLAVVGSRNASQMGVAAVKKIIQDLSKQFVIISGLARGIDTAAHLASLKSGGATIAVIGTGLDVHYPKENRRLQDYIAKNHLLLSEYEAQSQPLKYHFPERNRIIAGLSQGVMVAEAKIRSGSLITCERAMEEGRDVFVVPGNILDGQSEGCHHLIQEGAKCITSGFDILNEFNF

>  <test_result>
not soluble

$$$$
>  <sequence>
MGSDKIHHHHHHMTPIAQRDGQAIQLVGFDGDDTLWKSEDYYRTAEADFEAILSGYLDLGDSRMQQHLLAVERRNLKIFGYGAKGMTLSMIETAIELTEARIEARDIQRIVEIGRATLQHPVEVIAGVREAVAAIAADYAVVLITKGDLFHQEQKIEQSGLSDLFPRIEVVSEKDPQTYARVLSEFDLPAERFVMIGNSLRSDVEPVLAIGGWGIYTPYAVTWAHEQDHGVAADEPRLREVPDPSGWPAAVRALDAQAGRQQ

>  <test_result>
not soluble

$$$$
>  <sequence>
MVVSKMNKDAQMRAAINQKLIETGERERLKELLRAKLIECGWKDQLKAHCKEVIKEKGLEHVTVDDLVAEITPKGRALVPDSVKKELLQRIRTFLAQHASL

>  <test_result>
soluble

$$$$

All figures here come from the DeepSol protein solubility set.
